Molecular target: Human GLP-1 receptor (human, UniProt P43220 24-463)
Sequence (P43220 24-463): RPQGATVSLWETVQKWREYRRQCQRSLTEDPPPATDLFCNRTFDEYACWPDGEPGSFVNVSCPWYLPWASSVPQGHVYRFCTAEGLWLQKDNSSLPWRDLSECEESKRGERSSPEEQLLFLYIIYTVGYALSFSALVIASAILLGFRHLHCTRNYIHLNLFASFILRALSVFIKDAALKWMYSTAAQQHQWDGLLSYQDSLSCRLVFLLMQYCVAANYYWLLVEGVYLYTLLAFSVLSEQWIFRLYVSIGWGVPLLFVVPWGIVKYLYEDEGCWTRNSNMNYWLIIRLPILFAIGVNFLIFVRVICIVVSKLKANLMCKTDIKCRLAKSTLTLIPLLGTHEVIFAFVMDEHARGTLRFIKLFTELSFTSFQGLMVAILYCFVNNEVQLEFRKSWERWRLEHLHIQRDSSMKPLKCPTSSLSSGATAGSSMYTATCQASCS
Assay: cell-based or functional assay
Where no end group is shown, it is not given here. [ ]: non-standard residue; d: D form. Aib = CC(C)(N)C(=O)O
measured.metric: cAMP release, % activity with respect to control; test compound 10 µM (%)

binder: H[Aib]QGTFTSD[Bip(OMe)][Bip(2Me)] [Seq. ID. No. 13: H-Aib-QGTFTSD-Bip(OMe)-Bip(2Me)]
recorded.value: 99
--
binder: HSQGTXTSDXX (α-Me-2F-Phe at 6; Bip(OMe) at 10; Bip(2Me) at 11) [Seq. ID. No. 21: HSQGT-(α-Me-2F-Phe)-TSD-Bip(OMe)-Bip(2Me)]
recorded.value: 98
--
binder: H[Aib]QGTFTSD[Bip(OMe)][Bip(2CF3)] [Seq. ID. No. 16: H-Aib-QGTFTSD-Bip(OMe)-Bip(2CF3)]
recorded.value: 99
--
binder: HSQGTFTSD[Bip(OMe)][Bip(2F)] (not fully specified (C-terminus); printed as HSQGTFTSD-Bip(OMe)-Bip(2F)) [Seq. ID. No. 7: HSQGTFTSD-Bip(OMe)-Bip(2F)]
recorded.value: 99
--
binder: HXQGTXTSDXX (not fully specified; ACP at 2; α-Me-2F-Phe at 6; Bip(OMe) at 10; Bip(Pyr) at 11) [Seq. ID. No. 34: H-(ACP)-QGT-(α-Me-2F-Phe)-TSD-Bip(OMe)-Bip(Pyr)]
recorded.value: 99
--
binder: HXQGTXTSDXX (ACP at 2; α-Me-2F-Phe at 6; Bip(OMe) at 10; Bip(2Me) at 11) [Seq. ID. No. 33: H-(ACP)-QGT-(α-Me-2F-Phe)-TSD-Bip(OMe)-Bip(2Me)]
recorded.value: 99
